system: L-Wnt cells (murine Wnt-3a) / Leading Light Wnt Reporter Cells (luciferase under control of Wnt pathway response elements); test: Dual-Cell β-Catenin Reporter Assay; type: cell-based, Mouse; settings: category of IC50; luciferase signal reduced to 50% of DMSO control
pIC50: −log10 of the molar value.
For each record, write down the corresponding pIC50.

Data request, read-out pIC50, for Cc1c(-c2ccnc(F)c2)ncn1CC(=O)Nc1ccc(-c2cnccn2)cn1 [compound 110]
> 8.30

Data request, read-out pIC50, for Cc1cc(-c2cn(CC(=O)Nc3ccc(-c4cncnc4)cn3)nc2C)ccn1 [compound 91]
> 8.30

Data request, read-out pIC50, for Cc1nn(CC(=O)Nc2ccc(-c3ccnc(N(C)C)c3)cn2)cc1-c1ccnc(C(F)(F)F)c1 [compound 94]
7.00 to 8.30

Data request, read-out pIC50, for Cc1cc(-c2c(C)nn(CC(=O)Nc3ccc(-c4cnccn4)cn3)c2C)ccn1 [compound 44]
> 8.30

Data request, read-out pIC50, for O=C(Cn1cc(-c2ccnc(C(F)(F)F)c2)cn1)Nc1ccc(-c2cncnc2)cn1 [compound 34]
> 8.30

Data request, read-out pIC50, for O=C(Cn1cnc(-c2ccnc(C(F)(F)F)c2)c1)Nc1ccc(-c2cncnc2)nc1 [compound 11]
< 7.00

Data request, read-out pIC50, for CC(=O)Nc1ccc(-c2ccc(NC(=O)Cn3cc(-c4ccnc(C(F)(F)F)c4)c(C)n3)nc2)cn1 [compound 103]
> 8.30

Data request, read-out pIC50, for Cc1nn(CC(=O)Nc2ccc(-c3cnccn3)cn2)cc1-c1ccnc(C(F)(F)F)c1 [compound 56]
> 8.30

Data request, read-out pIC50, for Cc1nn(CC(=O)Nc2ccc(-c3cnccn3)cn2)c(C)c1-c1ccc(N(C)C)nc1 [compound 101]
7.00 to 8.30

Data request, read-out pIC50, for Cc1nn(CC(=O)Nc2ccc(-c3cncnc3)cn2)c(C)c1C1CC(C)OC(C)C1 (centres unmarked) [compound 96]
7.00 to 8.30

Data request, read-out pIC50, for Cc1nc(-c2ccnc(C(F)(F)F)c2)c(C)n1CC(=O)Nc1ccc(-c2cnccn2)cn1 [compound 72]
> 8.30

Data request, read-out pIC50, for Cc1nn(CC(=O)Nc2ccc(-c3cnccn3)cn2)c(C)c1-c1cc(Cl)ncn1 [compound 57]
7.00 to 8.30

Data request, read-out pIC50, for Cc1nn(CC(=O)Nc2ccc(-c3cnccn3)cn2)c(C)c1C1=CC(C)OC(C)C1 (centres unmarked) [compound 82]
> 8.30

Data request, read-out pIC50, for COc1cc(-c2cnccn2)cnc1NC(=O)Cn1nc(C)c(-c2ccnc(C(F)(F)F)c2)c1C [compound 77]
7.00 to 8.30

Data request, read-out pIC50, for O=C(Cn1cc(-c2ccnn2C2CCCC2)cn1)Nc1ccc(-c2cnccn2)cn1 [compound 45]
< 7.00

Data request, read-out pIC50, for O=C(Cn1cnc(-c2ccnc(C(F)(F)F)c2)c1)Nc1ccc(-c2cnccn2)nc1 [compound 13]
7.00 to 8.30

Data request, read-out pIC50, for Cn1nccc1-c1csc(CC(=O)Nc2ccc(-c3cnccn3)cn2)c1 [compound 31]
7.00 to 8.30

====

For each record, write down the corresponding pIC50.
system: L-Wnt cells (murine Wnt-3a) / Leading Light Wnt Reporter Cells (luciferase under control of Wnt pathway response elements); experiment: Dual-Cell β-Catenin Reporter Assay; format: cell-based, Mouse; conditions: category of IC50; luciferase signal reduced to 50% of DMSO control
pIC50: −log10 of the molar value.

Data request, read-out pIC50, for O=C(Cn1cc(-c2cn[nH]c2)cn1)Nc1ccc(-c2cnccn2)cn1
< 7.00

Data request, read-out pIC50, for Cc1nn(CC(=O)Nc2ccc(-c3ccc(N(C)C)nc3)cn2)cc1-c1ccnc(C(F)(F)F)c1
> 8.30

Data request, read-out pIC50, for Cc1cc(-c2cnn(CC(=O)Nc3ccc(N4CCN(C(=O)OC(C)(C)C)CC4)cn3)c2)ccn1
7.00 to 8.30

Data request, read-out pIC50, for O=C(Cn1cc(-c2ccnc(C(F)F)c2)cn1)Nc1ccc(-c2cnccn2)cn1
> 8.30

Data request, read-out pIC50, for Cc1nn(CC(=O)Nc2ccc(-c3cnccn3)cn2)c(C)c1C1=CCN(C(=O)OC(C)(C)C)CC1
7.00 to 8.30

Data request, read-out pIC50, for Cc1nn(CC(=O)Nc2ccc(C3=CCOCC3)cn2)c(C)c1-c1ccnc(C(F)(F)F)c1
7.00 to 8.30

Data request, read-out pIC50, for Cc1nn(CC(=O)Nc2ccc(-c3cnccn3)cn2)c(C)c1-c1cn(C)nc1C(F)(F)F
7.00 to 8.30

Data request, read-out pIC50, for Cc1ncc(-c2cnn(CC(=O)Nc3ccc(-c4cnccn4)cn3)c2)s1
< 7.00

====

test system: L-Wnt cells (murine Wnt-3a) / Leading Light Wnt Reporter Cells (luciferase under control of Wnt pathway response elements); experiment: Dual-Cell β-Catenin Reporter Assay; type: cell-based, Mouse; details: category of IC50; luciferase signal reduced to 50% of DMSO control
Property label: IC50

Data request, read-out IC50, for Cc1nn(CC(=O)Nc2ccc(-c3cnccn3)cn2)c(C)c1-c1ccnn1C1CCCC1 [compound 47]
> 100 nM

Data request, read-out IC50, for Cc1nn(CC(=O)Nc2ncc(-c3cnccn3)cc2C#N)c(C)c1-c1ccnc(C(F)(F)F)c1 [compound 80]
5 to 100 nM

Data request, read-out IC50, for Cc1nn(CC(=O)Nc2ccc(-c3ccnn3C)cn2)c(C)c1-c1ccnc(C(F)(F)F)c1 [compound 55]
< 5 nM

Data request, read-out IC50, for Cc1nn(CC(=O)Nc2ccc(-c3ccnc(C#N)c3)cn2)c(C)c1-c1ccnc(C(F)(F)F)c1 [compound 71]
< 5 nM

Data request, read-out IC50, for Cc1nn(CC(=O)Nc2ccc(-c3cnccn3)cn2)c(C)c1-c1cnn(C(C)C)c1 [compound 62]
5 to 100 nM

Data request, read-out IC50, for Cc1c(-c2ccnc(C(F)(F)F)c2)ncn1CC(=O)Nc1ccc(-c2ccnc(C#N)c2)cn1 [compound 109]
5 to 100 nM

Data request, read-out IC50, for Cc1nn(CC(=O)Nc2ccc(-c3ccc(C#N)nc3)cn2)c(C)c1-c1ccnc(C(F)(F)F)c1 [compound 66]
< 5 nM

Data request, read-out IC50, for Cc1nn(CC(=O)Nc2ccc(-c3cnccn3)cn2)c(C)c1-c1cnn(C2CC2)c1 [compound 58]
5 to 100 nM

Data request, read-out IC50, for O=C(Cn1cc(-c2ccnc(C(F)(F)F)c2)c(C(F)(F)F)n1)Nc1ccc(-c2cnccn2)cn1 [compound 95]
< 5 nM

Data request, read-out IC50, for Cc1nn(CC(=O)Nc2ccc(-c3cnccn3)cn2)c(C)c1C1=CCNCC1 [compound 53]
> 100 nM

Data request, read-out IC50, for Cc1noc(C)c1-c1cnn(CC(=O)Nc2ccc(-c3cnccn3)cn2)c1 [compound 36]
5 to 100 nM

Data request, read-out IC50, for Cc1nn(CC(=O)Nc2ccc(-c3cnccn3)cn2)c(C)c1C1CC(C)OC(C)C1 (stereo not shown) [compound 92]
5 to 100 nM

Data request, read-out IC50, for O=C(Cc1cc(-c2ccnc(C(F)(F)F)c2)cs1)Nc1ccc(-c2cnccn2)cn1 [compound 23]
< 5 nM

Data request, read-out IC50, for Cc1cc(-c2cn(CC(=O)Nc3ccc(-c4cnccn4)cn3)nc2C)ccn1 [compound 90]
< 5 nM

Data request, read-out IC50, for COc1ccc(-c2c(C)nn(CC(=O)Nc3ccc(-c4cnccn4)cn3)c2C)cn1 [compound 64]
5 to 100 nM

Data request, read-out IC50, for Cc1cc(-c2c(C)nn(CC(=O)Nc3ccc(-c4cnccn4)cn3)c2C)cnn1 [compound 51]
5 to 100 nM

====

tested on: L-Wnt cells (murine Wnt-3a) / Leading Light Wnt Reporter Cells (luciferase under control of Wnt pathway response elements); assay: Dual-Cell β-Catenin Reporter Assay; assay type: cell-based, Mouse; conditions: category of IC50; luciferase signal reduced to 50% of DMSO control
pIC50: −log10 of the molar value.
For each record, write down the corresponding pIC50.

Data request, read-out pIC50, for Cc1nn(CC(=O)Nc2ccc(-c3ccccc3C#N)cn2)c(C)c1-c1ccnc(C(F)(F)F)c1
> 8.30

Data request, read-out pIC50, for Cc1c(-c2ccnc(C(F)(F)F)c2)ncn1CC(=O)Nc1ccc(-c2cncnc2)cn1
> 8.30

Data request, read-out pIC50, for Cc1nccc(-c2cnn(CC(=O)Nc3ccc(-c4cnccn4)cn3)c2)n1
7.00 to 8.30

Data request, read-out pIC50, for Cc1nn(CC(=O)Nc2ccc(C3CCOCC3)cn2)c(C)c1-c1ccnc(C(F)(F)F)c1
7.00 to 8.30

Data request, read-out pIC50, for COc1ccc(-c2ccc(NC(=O)Cn3cc(-c4ccnc(C(F)(F)F)c4)c(C)n3)nc2)cn1
7.00 to 8.30

Data request, read-out pIC50, for O=C(Cn1cc(-c2ccnc(C(F)(F)F)n2)cn1)Nc1ccc(-c2cnccn2)cn1
> 8.30

Data request, read-out pIC50, for Cc1nn(CC(=O)Nc2ccc(-c3ncccn3)cn2)c(C)c1-c1ccnc(C(F)(F)F)c1
> 8.30

Data request, read-out pIC50, for Cc1nn(CC(=O)Nc2ccc(-c3cnccn3)cn2)c(C)c1-c1ccnn1C
7.00 to 8.30
